src = ChEMBL document CHEMBL4513216

- assayInfo: Toxicity liver stage against HepG2, at 10uM
- Type: cell-based
- Set-up: test concentration 10 uM, cell line HepG2-A16-CD81EGFP
- testConditions: human, HepG2-A16-CD81EGFP cells; read-out: INHIBITION
valueType: cytotoxicity at 10 µM (%)
Please respond with the number in % and leave the unit unwritten.

Query: Note cytotoxicity at 10 µM for the compound shown: Cn1ccnc1CN1CCC(Cc2ccccn2)CC1
Response: -10.2

Query: Let me know recorded cytotoxicity at 10 µM for Nc1ccnc(-c2cc(NC3CCNCC3)nc3[nH]ccc23)c1 , thanks.
Response: 3.18

Query: Report measured cytotoxicity at 10 µM; entry is Cc1ccc(-c2nc(CN3CCCC(Cn4cncn4)C3)no2)cc1 (stereo unspecified)
Response: -4.86

Query: Fill in cytotoxicity at 10 µM for record Cc1sc(NC(=O)CN(C)CCOc2cccc(F)c2)c(C)c1C
Response: 4.21

Query: Give the reported cytotoxicity at 10 µM for this compound. CC(=O)N1CCN(C[C@H]2CC[C@@H](Cc3ccc4c(c3)OCO4)O2)CC1
Response: -7.9

Query: Read the entry COc1cccc(CN2CCCCCC2c2cccc(C)c2)c1O (stereo unspecified) and write its reported cytotoxicity at 10 µM.
Response: 7.6

====

- assayInfo: Toxicity liver stage against HepG2, at 10uM
- Assay type: cell-based
- Design: test concentration 10 uM, cell line HepG2-A16-CD81EGFP
- testConditions: human, HepG2-A16-CD81EGFP cells; read-out: INHIBITION
valueType: cytotoxicity at 10 µM (%)
State just the number; it will be interpreted in %.

Query: Kindly indicate its recorded cytotoxicity at 10 µM. Item: O=C(CCS(=O)(=O)C1CCCC1)NCCc1cccc(O)c1
Response: -3.09

====

- assayInfo: Toxicity liver stage against HepG2, at 10uM
- Format: cell-based
- Design: test concentration 10 uM, cell line HepG2-A16-CD81EGFP
- testConditions: human, HepG2-A16-CD81EGFP cells; read-out: INHIBITION
valueType: cytotoxicity at 10 µM (%)
// units = %; emit number, no label

Answered cases to consult:
CCC(CO)N(Cc1ccccn1)C(=O)c1ccc(C)c(Cl)c1 (centres undefined) :: -0.054
CC(C)C(=O)N1Cc2ccccc2CC2(CCCCN2C)C1 (centres undefined) :: 9.15
CCNC(=O)NC1CN(CC(=O)NCc2ccccc2C)C[C@@H]1OC (some centres undefined) :: -1.6
O=C(Cc1cn2ccsc2n1)N1CCCC(n2ccnc2)C1 (centres undefined) :: -8.22
CSCCCN1CCn2nc(CNC(C)=O)cc2C1 :: -13.6
COc1cc(Cl)ccc1CNC(=O)N1CCC(n2cncn2)CC1 :: -0.861

Query: Provide measured cytotoxicity at 10 µM value, entry: CN(C)CCN1CCN(C)c2nc(-c3ccccc3)ncc2C1=O
Response: -11.6

Query: Identify measured cytotoxicity at 10 µM associated with CC(=O)N1CCC2(CCCN(S(=O)(=O)c3ccc(F)cc3)C2)C1 (centres undefined)
Response: 2.26

Query: Look up and report measured cytotoxicity at 10 µM for this entry: Cc1cc2n(n1)CC(CNCc1ccnc(-n3ccnc3C)c1)CN2 (centres undefined)
Response: -4.95

Query: Give reported cytotoxicity at 10 µM value for Cc1cccc(NC(=O)[C@@H]2CCCN2CC(=O)Nc2ccccc2)n1
Response: 2.45

Query: Write down cytotoxicity at 10 µM measured for item CCc1ccc(C(=O)NCc2cccc(S(=O)(=O)NC)c2)o1
Response: -2.31

Query: Give the reported cytotoxicity at 10 µM for this compound. O=C(N[C@@H]1CN(c2ncccn2)[C@@H]2CCCO[C@@H]21)c1cscn1
Response: -142

Query: State, in one line, measured cytotoxicity at 10 µM of CC(C)CN1CCN(C(=O)c2ccn(C)c(=O)c2)CC1
Response: -17.2

Query: Name the recorded cytotoxicity at 10 µM of the compound listed here: Cc1nc(COc2ccc(OC3CCCCNC3=O)cc2)oc1C (centres undefined)
Response: 15.2

Query: Please look at this compound and report its cytotoxicity at 10 µM: O=C(CCc1nc(C2CC2)no1)c1ccc(F)c(F)c1
Response: 0.923

Query: Fill in cytotoxicity at 10 µM for record Cc1cnc(C(=O)N2CCN(Cc3csc(C)n3)CC2)cn1
Response: -132

Query: Answer with reported cytotoxicity at 10 µM of CC[C@@H]1N(Cc2ccc(C)o2)CCC[C@]12CCC(=O)N2CCOC
Response: 10.5

Query: Supply cytotoxicity at 10 µM value. Item: CC(=O)N1CCCN(C(=O)NC(C)c2csc3ccccc23)CC1 (centres undefined)
Response: -4.6

Query: Answer with the recorded cytotoxicity at 10 µM for the compound listed here: Cc1nccn1-c1ccc(C(C)NCCc2ccccn2)cc1 (centres undefined)
Response: 10.4

Query: State its cytotoxicity at 10 µM for this compound: COc1ccccc1NC(=O)CCNC(=O)c1ccoc1
Response: 1.66

Query: Tell me measured cytotoxicity at 10 µM for CCCn1cc(NC(=O)c2cccnc2O)ccc1=O please.
Response: -13.1

Query: Supply cytotoxicity at 10 µM value. Item: CCN(Cc1cccc2c1OCO2)C(=O)Nc1cn[nH]c1
Response: -17.2

Query: Hello, please tell me recorded cytotoxicity at 10 µM for this one: O=S1(=O)C[C@@H]2[C@H](C1)N(Cc1ccc3ccccc3c1)CCN2CC1CC1
Response: 1.99

Query: Fill in reported cytotoxicity at 10 µM for this entry: c1ccc(Cc2nnc(CN3CCCCC3Cn3cncn3)o2)cc1 (centres undefined)
Response: -20.4

====

- assayInfo: Toxicity liver stage against HepG2, at 10uM
- Type: cell-based
- Design: test concentration 10 uM, cell line HepG2-A16-CD81EGFP
- testConditions: human, HepG2-A16-CD81EGFP cells; read-out: INHIBITION
valueType: cytotoxicity at 10 µM (%)
A number alone suffices; assume %.

These recorded examples may help you get a feel for the data.
CC(C(=O)Nc1ccccc1Sc1ccccc1)S(C)(=O)=O (stereo unspecified) :: -1.7
CC(C)S(=O)(=O)CC(=O)NCC(Cc1ccc(F)cc1)C(N)=O (stereo unspecified) :: 6.75
Cc1ccc([C@@H]2CN(S(=O)(=O)c3cc(C)ccc3F)C[C@H]2N(C)C)cc1 :: -7.21
Cc1ccc(C(O)CNC(=O)NCc2csc(C)n2)cc1 (stereo unspecified) :: -5.13
COCC(=O)N1CC[C@@H]2O[C@@H](COCC3CCOCC3)CC[C@@H]21 :: 0.718
Cc1noc(C)c1C(=O)N1CCSc2ccc(Cl)cc21 :: -108
CC(C)c1nc(N2CC[C@@H](N(C)CCc3ccccn3)[C@H](O)C2)no1 :: -0.662
N#Cc1ccc(CNCCS(=O)(=O)N2CCc3ccccc32)cc1 :: -4.11
COCCN1C[C@@H]2CN(Cc3ccsc3)CCC[C@]2(C(=O)O)C1 :: -10.6
COCc1cn(C2CCN(C(=O)Cc3ccsc3)CC2)nn1 :: -4.2

Query: Tell me cytotoxicity at 10 µM reported for NC(=O)CCCNC(=O)CCc1cc(Br)cs1
Response: 4.11

====

- assayInfo: Toxicity liver stage against HepG2, at 10uM
- Type: cell-based
- Design: test concentration 10 uM, cell line HepG2-A16-CD81EGFP
- testConditions: human, HepG2-A16-CD81EGFP cells; read-out: INHIBITION
Some molecules, each annotated with its measured cytotoxicity at 10 µM.
Hi! Could you send only the number? It should be in %, unit omitted.

Recorded cytotoxicity at 10 µM, per entry:
CC(C)(N)C(=O)N1CCCC(c2cncc(Oc3cccnc3)n2)C1 (configuration not stated) :: -20.6
CN(C)S(=O)(=O)N1CC[C@]2(O)CCN(CCc3cccc(F)c3)C[C@@H]2C1 :: -3.38
O=C(CSCc1ccncc1)NCC1CCN(C2CC2)C1 (configuration not stated) :: 0.224
CN1CCN(CC(=O)NCc2ccco2)Cc2ccccc21 :: -3.81
O=C(O)CN(C(=O)c1ccccc1)[C@H]1C[C@H]2CCOC[C@H]2C1 :: -1.03
Cc1cc(S(C)(=O)=O)c(C)c(S(=O)(=O)N2CCCC(C)C2)c1 (configuration not stated) :: 22.6
CCN(Cc1c(F)cccc1F)C(=O)c1ccncc1O :: -1.22
CC(C)c1nc(O)c2nnn(C[C@H]3CCCN(Cc4ccsc4)C3)c2n1 :: 1.8

Query: Tell me measured cytotoxicity at 10 µM for NC(=O)c1ccnc(N2CCCC(CO)(Cc3ccc(F)cc3)C2)c1 (configuration not stated) please.
Response: 14.1

Query: For the molecule Cc1noc(C[C@@H]2COC[C@H]3CN(S(=O)(=O)C4CC4)C[C@@H]23)n1 , give its measured cytotoxicity at 10 µM value.
Response: 8.37

Query: Answer with the recorded cytotoxicity at 10 µM of COc1ccccc1C(=O)NCC(c1cccn1C)N1CCOCC1 (configuration not stated) only.
Response: 7.11

Query: Kindly indicate its recorded cytotoxicity at 10 µM. Item: CC(NS(C)(=O)=O)c1nc(-c2ccc(Br)cc2)no1 (configuration not stated)
Response: 4.29
